Assay: GHB toxicokinetic study, i.v. bolus, plasma and urine up to 8 h, noncompartmental analysis
Type: in vivo, Sprague Dawley rats
Details: female, Sprague Dawley, rat, plasma and urine, iv, 1000 mg/kg, 1000 mg/kg GHB iv; OVX testosterone placebo rats; read-out: CLR - Renal clearance
Text: Male and female Sprague Dawley (SD) rats, ovariectomized (OVX) females, and castrated (CST) males were obtained from Charles River (Wilmington, MA, USA) at 8 weeks of age. […] Estrus cycle stages of female rats were monitored daily by vaginal lavage smear, as described in previously published literature. […] GHB in plasma and urine were quantified using a validated liquid chromatography/tandem mass spectrometry (LC/MS/MS) assay that was described previously. […]
QUANTITY: CL renal (mL/min/kg)
I only need the number, in mL/min/kg, no unit after it.

Give its CL renal value. Item: O=C(O)CCCO [GHB, Γ-hydroxybutyric acid]
2.4

* * *

Test: GHB toxicokinetic study, i.v. bolus, plasma and urine up to 8 h, noncompartmental analysis
Format: in vivo, Sprague Dawley rats
Conditions: male, Sprague-Dawley, rat, plasma and urine, iv, 1500 mg/kg, 1500 mg/kg GHB + 1mg/kg AR-C 155858 iv; intact male rats; read-out: CLm (metabolic clearance)
QUANTITY: clearance (mL/min/kg)
The answer is to be given in mL/min/kg; state only the numeric part.

Report clearance for O=C(O)CCCO [GHB, Γ-hydroxybutyric acid] please.
2.1

* * *

Assay: GHB toxicokinetic study, i.v. bolus, plasma and urine up to 8 h, noncompartmental analysis
Assay type: in vivo, Sprague Dawley rats
Details: female, Sprague-Dawley, rat, plasma and urine, iv, 1500 mg/kg, 1500 mg/kg GHB + 1mg/kg AR-C 155858 iv; OVX testosterone placebo rats; read-out: CLR (renal clearance)
QUANTITY: CL renal (mL/min/kg)
# value in mL/min/kg; strip the unit string

Endpoint output: CL renal of O=C(O)CCCO [GHB, Γ-hydroxybutyric acid] . Value?
7

* * *

Assay: GHB toxicokinetic study, i.v. bolus, plasma and urine up to 8 h, noncompartmental analysis
Assay type: in vivo, Sprague Dawley rats
Details: female, Sprague Dawley, rat, plasma and urine, iv, 1000 mg/kg, 1000 mg/kg GHB iv; intact female (estrus) rats; read-out: CLm – Metabolic clearance
QUANTITY: clearance (mL/min/kg)
The answer is to be given in mL/min/kg; state only the numeric part.

Can you look up the measured clearance of O=C(O)CCCO [GHB, Γ-hydroxybutyric acid] for me?
4.1

* * *

Assay: GHB toxicokinetic study, i.v. bolus, plasma and urine up to 8 h, noncompartmental analysis
Type: in vivo, Sprague Dawley rats
Conditions: female, Sprague-Dawley, rat, plasma and urine, iv, 1500 mg/kg, 1500 mg/kg GHB + 1mg/kg AR-C 155858 iv; OVX testosterone rats; read-out: CLR (renal clearance)
From the text: Male and female Sprague Dawley (SD) rats, ovariectomized (OVX) females, and castrated (CST) males were obtained from Charles River (Wilmington, MA, USA) at 8 weeks of age. […] Estrus cycle stages of female rats were monitored daily by vaginal lavage smear, as described in previously published literature. […] GHB in plasma and urine were quantified using a validated liquid chromatography/tandem mass spectrometry (LC/MS/MS) assay that was described previously. […]
QUANTITY: CL renal (mL/min/kg)
# value in mL/min/kg; strip the unit string

Which CL renal is reported for this molecule? O=C(O)CCCO [GHB, Γ-hydroxybutyric acid]
7

Every entry's value here was drawn from paper PMC10821532.
